- study.system: UniProt:Q9NR97
- Sequence (Q9NR97 27-1041): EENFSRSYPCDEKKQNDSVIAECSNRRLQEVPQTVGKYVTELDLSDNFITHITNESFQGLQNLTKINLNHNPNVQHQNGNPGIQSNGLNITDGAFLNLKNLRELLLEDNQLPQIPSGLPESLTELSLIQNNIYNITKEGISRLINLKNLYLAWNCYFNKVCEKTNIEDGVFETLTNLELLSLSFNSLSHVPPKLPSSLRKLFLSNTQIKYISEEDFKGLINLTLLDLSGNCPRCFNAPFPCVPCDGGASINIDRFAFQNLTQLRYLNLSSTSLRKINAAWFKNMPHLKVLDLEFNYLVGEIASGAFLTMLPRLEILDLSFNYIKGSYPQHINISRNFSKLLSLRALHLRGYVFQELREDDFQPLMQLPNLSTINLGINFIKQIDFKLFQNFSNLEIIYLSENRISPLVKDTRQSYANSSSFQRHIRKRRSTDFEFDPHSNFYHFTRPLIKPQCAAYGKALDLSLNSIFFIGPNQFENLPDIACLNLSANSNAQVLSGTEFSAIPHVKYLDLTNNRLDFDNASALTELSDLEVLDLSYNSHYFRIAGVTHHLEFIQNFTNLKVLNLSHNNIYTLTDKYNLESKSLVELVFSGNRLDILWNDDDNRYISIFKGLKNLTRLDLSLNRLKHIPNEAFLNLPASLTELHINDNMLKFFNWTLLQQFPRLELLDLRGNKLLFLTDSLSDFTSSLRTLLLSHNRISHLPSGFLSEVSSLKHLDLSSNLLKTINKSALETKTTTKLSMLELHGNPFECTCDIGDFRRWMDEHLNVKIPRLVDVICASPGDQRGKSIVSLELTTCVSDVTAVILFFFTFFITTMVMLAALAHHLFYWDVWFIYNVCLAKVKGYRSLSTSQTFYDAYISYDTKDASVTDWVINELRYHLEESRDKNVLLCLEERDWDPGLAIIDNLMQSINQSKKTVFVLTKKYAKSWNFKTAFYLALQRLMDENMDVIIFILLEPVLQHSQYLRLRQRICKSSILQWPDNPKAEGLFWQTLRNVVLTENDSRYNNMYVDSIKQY
- assay.remarks: TLR8 inhibition reporter assay (HEK-Blue SEAP reporter, R848 stimulation)
- experimental.conditions: HEK-Blue cells overexpressing human TLR8, SEAP reporter, R848 15.9 μM, 22 hour incubation
Could you please report measured IC50 for the items listed next?
One number for each entry, in nM.

Consider the following illustrative entries.
>  <compound>
Cc1cc(-c2[nH]c3ccc(C4CCN(C5CCC(C(C)(C)O)CC5)CC4)cc3c2C(C)C)cn(C)c1=O (stereo not drawn) [Example 267]

>  <study.system>
UniProt:Q9NR97

>  <unit.abbreviation>
nM

>  <IC50>
6.6

$$$$
>  <compound>
Cc1c(-c2[nH]c3ccc(C4CCN(CCC(C)C)CC4)cc3c2C(C)C)cn(C)c(=O)c1Cl

>  <study.system>
UniProt:Q9NR97

>  <unit.abbreviation>
nM

>  <IC50>
5

$$$$

Please state IC50 for every compound in the list that follows.
1. CC(C)c1c(-c2cc(-c3cccnc3)c(=O)n(C)c2)[nH]c2ccc(C3CCNCC3)cc12
2. CC(=O)NC1CCC(N2CCC(c3ccc4[nH]c(-c5cc(C)c(=O)n(C)c5)c(C(C)C)c4c3)CC2)CC1 (stereo not drawn)

7.7
4.2

Hey, quick one: what's IC50 for each of these?
1. Cc1cc(-c2[nH]c3ccc(C4CCN([C@H]5COCC[C@@H]5O)CC4)cc3c2C(C)C)cn(C)c1=O
2. Cc1c(-c2[nH]c3ccc(C4CCN(C5CCOCC5)CC4)cc3c2C(C)C)cn(C)c(=O)c1Cl
3. COCCN1CCC(c2ccc3[nH]c(-c4cc(-c5cncnc5)c(=O)n(C)c4)c(C(C)C)c3c2)CC1
4. Cc1cc(-c2[nH]c3ccc(C4CCN(C5CCOCC5)CC4)cc3c2C(C)C)cn(CC(C)C)c1=O

1. 5.1
2. 5.3
3. 1.3
4. 52.3

----------
Answer each item with its documented IC50.
- study.system: human TLR9 (Homo sapiens, UniProt Q9NR96)
- Construct: host or cells: HEK-Blue cells
- Sequence (Q9NR96 26-1032): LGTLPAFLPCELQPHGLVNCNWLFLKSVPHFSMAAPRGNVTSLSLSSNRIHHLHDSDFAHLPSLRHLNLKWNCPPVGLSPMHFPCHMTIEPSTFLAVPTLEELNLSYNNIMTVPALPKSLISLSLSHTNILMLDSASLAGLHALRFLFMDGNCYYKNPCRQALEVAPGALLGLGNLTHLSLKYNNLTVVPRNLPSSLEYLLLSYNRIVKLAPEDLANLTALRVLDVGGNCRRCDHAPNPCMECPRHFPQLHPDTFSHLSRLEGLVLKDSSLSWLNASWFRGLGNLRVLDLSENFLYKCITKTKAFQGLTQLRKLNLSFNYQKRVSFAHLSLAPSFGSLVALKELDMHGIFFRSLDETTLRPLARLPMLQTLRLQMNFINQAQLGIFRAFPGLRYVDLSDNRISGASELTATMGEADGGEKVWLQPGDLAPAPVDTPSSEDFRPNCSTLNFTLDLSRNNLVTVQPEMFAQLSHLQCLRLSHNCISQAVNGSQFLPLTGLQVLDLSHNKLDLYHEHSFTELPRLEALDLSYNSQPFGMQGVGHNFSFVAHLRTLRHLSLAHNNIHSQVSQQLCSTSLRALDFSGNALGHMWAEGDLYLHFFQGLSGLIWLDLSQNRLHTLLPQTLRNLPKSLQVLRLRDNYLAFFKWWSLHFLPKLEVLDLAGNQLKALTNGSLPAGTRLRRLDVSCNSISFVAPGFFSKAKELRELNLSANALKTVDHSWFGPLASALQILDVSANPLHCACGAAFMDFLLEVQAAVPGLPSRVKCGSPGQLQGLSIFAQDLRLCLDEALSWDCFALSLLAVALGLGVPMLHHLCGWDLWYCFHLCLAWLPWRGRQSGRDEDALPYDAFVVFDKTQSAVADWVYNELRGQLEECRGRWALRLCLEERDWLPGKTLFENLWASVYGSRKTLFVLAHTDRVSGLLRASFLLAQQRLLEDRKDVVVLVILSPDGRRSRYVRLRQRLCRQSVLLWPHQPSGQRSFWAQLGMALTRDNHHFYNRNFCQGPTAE
- assay.remarks: TLR9 inhibition reporter assay (HEK-Blue SEAP reporter, ODN2006 stimulation)
- Assay type: cell-based
- experimental.conditions: HEK-Blue cells overexpressing human TLR9, SEAP reporter, ODN2006 5 nM, 22 hour incubation
One number for each entry, in nM.

Illustrative cases are given below, each with its answer.
>  <compound>
CC(C)c1c(-c2cc(-c3cccnc3)c(=O)n(C)c2)[nH]c2ccc(C3CCN(C(C)C)CC3)cc12 [Example 235]

>  <study.system>
human TLR9 (Homo sapiens, UniProt Q9NR96)

>  <IC50 [nM]>
1770

$$$$
>  <compound>
COc1ncccc1-c1cc(-c2[nH]c3ccc(C4CCNCC4)cc3c2C(C)C)cn(C)c1=O [Example 57]

>  <study.system>
human TLR9 (Homo sapiens, UniProt Q9NR96)

>  <IC50 [nM]>
1360

$$$$
>  <compound>
Cc1c(-c2[nH]c3ccc(C4CCN(S(=O)(=O)CCN5CCCC5)CC4)cc3c2C(C)C)cn(C)c(=O)c1Cl [Example 308]

>  <study.system>
human TLR9 (Homo sapiens, UniProt Q9NR96)

>  <IC50 [nM]>
5650

$$$$
>  <compound>
Cc1cc(-c2[nH]c3ccc(C4CCN(C(=O)[C@H]5NCC[C@@H]5O)CC4)cc3c2C(C)C)cn(C)c1=O [Example 291]

>  <study.system>
human TLR9 (Homo sapiens, UniProt Q9NR96)

>  <IC50 [nM]>
1420

$$$$
>  <compound>
Cc1c(-c2[nH]c3ccc(C4CCN(C(=O)CN(C)C)CC4)cc3c2C(C)C)nn(C)c(=O)c1C [Example 283]

>  <study.system>
human TLR9 (Homo sapiens, UniProt Q9NR96)

>  <IC50 [nM]>
6250

$$$$
>  <compound>
Cc1cc(-c2[nH]c3ccc(C4CCN(C5CCC(C(F)(F)F)CC5)CC4)cc3c2C(C)C)cn(C)c1=O (stereo not shown) [Example 230]

>  <study.system>
human TLR9 (Homo sapiens, UniProt Q9NR96)

>  <IC50 [nM]>
5510

$$$$

Consider now this further compound.
What does the data say about its IC50? Entry: CC(C)c1c(-c2cc(C#N)c(=O)n(C)c2)[nH]c2ccc(C3CCNCC3)cc12 [Example 47]
1890
